Target: DNMT1 full-length (Homo sapiens, UniProt P26358 SEQ:1-1616)
Sequence (P26358 whole entry): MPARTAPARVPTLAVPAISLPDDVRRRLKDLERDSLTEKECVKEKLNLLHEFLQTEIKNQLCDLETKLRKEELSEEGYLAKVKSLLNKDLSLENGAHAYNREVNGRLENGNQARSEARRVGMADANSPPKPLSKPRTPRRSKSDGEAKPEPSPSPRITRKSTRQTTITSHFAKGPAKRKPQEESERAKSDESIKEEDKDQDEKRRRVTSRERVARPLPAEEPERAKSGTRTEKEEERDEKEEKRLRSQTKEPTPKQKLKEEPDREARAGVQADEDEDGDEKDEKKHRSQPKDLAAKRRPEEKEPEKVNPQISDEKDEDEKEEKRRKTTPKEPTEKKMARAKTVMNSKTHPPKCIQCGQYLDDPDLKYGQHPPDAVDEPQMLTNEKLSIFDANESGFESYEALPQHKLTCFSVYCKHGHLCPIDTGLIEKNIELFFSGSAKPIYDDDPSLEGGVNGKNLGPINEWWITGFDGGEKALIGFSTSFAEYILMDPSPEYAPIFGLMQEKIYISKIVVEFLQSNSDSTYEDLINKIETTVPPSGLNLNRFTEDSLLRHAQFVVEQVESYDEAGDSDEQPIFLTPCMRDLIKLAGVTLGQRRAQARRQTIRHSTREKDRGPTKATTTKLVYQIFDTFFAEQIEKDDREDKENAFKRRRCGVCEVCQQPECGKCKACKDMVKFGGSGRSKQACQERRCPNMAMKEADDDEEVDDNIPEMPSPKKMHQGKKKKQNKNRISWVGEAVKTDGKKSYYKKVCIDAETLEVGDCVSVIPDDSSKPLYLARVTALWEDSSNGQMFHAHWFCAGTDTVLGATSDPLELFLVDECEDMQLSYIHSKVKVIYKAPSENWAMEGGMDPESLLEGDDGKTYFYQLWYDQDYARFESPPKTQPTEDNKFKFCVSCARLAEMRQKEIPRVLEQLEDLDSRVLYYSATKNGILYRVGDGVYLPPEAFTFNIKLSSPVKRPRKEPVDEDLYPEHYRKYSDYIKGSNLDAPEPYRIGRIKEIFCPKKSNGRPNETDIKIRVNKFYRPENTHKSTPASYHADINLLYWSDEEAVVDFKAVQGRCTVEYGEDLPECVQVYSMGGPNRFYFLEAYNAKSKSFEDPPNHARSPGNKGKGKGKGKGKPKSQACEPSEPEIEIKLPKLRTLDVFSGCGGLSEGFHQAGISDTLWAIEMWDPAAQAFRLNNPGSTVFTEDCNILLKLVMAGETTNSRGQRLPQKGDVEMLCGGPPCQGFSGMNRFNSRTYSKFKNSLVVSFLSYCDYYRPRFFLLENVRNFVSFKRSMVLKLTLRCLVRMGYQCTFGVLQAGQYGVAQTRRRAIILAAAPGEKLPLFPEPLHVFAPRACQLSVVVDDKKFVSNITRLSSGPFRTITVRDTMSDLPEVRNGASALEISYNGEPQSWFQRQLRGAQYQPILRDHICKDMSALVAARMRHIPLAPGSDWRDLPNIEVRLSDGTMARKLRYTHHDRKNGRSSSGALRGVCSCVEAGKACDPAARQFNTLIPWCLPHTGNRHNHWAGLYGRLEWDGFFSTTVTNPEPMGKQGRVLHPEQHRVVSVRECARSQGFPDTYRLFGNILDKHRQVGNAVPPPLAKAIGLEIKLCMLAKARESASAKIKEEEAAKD
Experiment: inhibition; competitive vs hemimethylated DNA
Conditions: tags: baculovirus Sf9; label: 5'-33P in pull-down
experimental_endpoint: Ki (nM)
Numbers only, in nM.

Which Ki is listed for CCGGGAAGCAGGCGGCGUCAGGC (ssRNA) [asCEBPα-1HPE] ?
918
